Source: PubChem BioAssay (EPA / NIEHS)

Test Details: APR_HepG2_StressKinase_24hr: Apredica 24-hour HepG2 Assay for Stress Kinase (AID 2282922)
Applied Conditions: HepG2 stress kinase (phospho-c-Jun) imaging, actives raise or lower the signal
Activity calls are given as the source filed them. How the source made its calls: active means hit-call score of the fitted dose curve at least 0.9, where 1 is the maximum; inactive means score below 0.9.
Response enum: active, inactive

Consider the worked cases shown below.
Call for entry NS(=O)(=O)c1cc2c(cc1Cl)NCNS2(=O)=O :
inactive

Ok, now CCCCCCCC=O
inactive

Ok, now O=C(O)Cc1ccccc1Nc1c(Cl)cccc1Cl
inactive

Ok, now CC(=O)OC/C=C(\C)CCC=C(C)C
inactive

Ok, now CCOC(=O)C(C)(C)Oc1ccc(Cl)cc1
inactive

Ok, now Cc1cc(=O)[nH]c(=S)[nH]1
inactive

Ok, now COc1ccc(S(=O)(=O)N2C(=O)[C@@](c3ccccc3OC)(N3C[C@H](O)C[C@H]3C(=O)N(C)C)c3cc(Cl)ccc32)c(OC)c1
inactive

Ok, now Cc1c(C(=O)O)c(O)cc2c1C(=O)c1c(O)c([C@@H]3O[C@H](CO)[C@@H](O)[C@H](O)[C@H]3O)c(O)c(O)c1C2=O
inactive

New cases:
Call for entry CC(=O)OCCOCCOCCOC(C)=O :
inactive

Ok, now Nc1ccc(S(=O)(=O)c2ccc(N)cc2)cc1
inactive

Ok, now Cc1ccc(C(C)C)c(O)c1
inactive

Ok, now CCOc1ccc2c(c1)C(C)=CC(C)(C)N2
inactive

Ok, now CCCCCCCCCCO
inactive

Ok, now COCCOCCOC
inactive

Ok, now C=CCc1ccc(O)c(OC)c1
inactive

Ok, now NCCO
inactive

Ok, now NC(=O)Cn1c(=O)cc(CCN2CCN(c3nccc4sccc34)CC2)c2ccc(F)cc21
inactive

Ok, now CC1=C(/C=C/C(C)=C/C=C/C(C)=C/CO)C(C)(C)CCC1
active

Ok, now Nc1ccc2c(c1)C(=O)c1ccccc1C2=O
inactive

Ok, now Cc1ccc(C)c(C)c1
inactive

Ok, now O=c1c(O)c(-c2ccc(O)c(O)c2)oc2cc(O)cc(O)c12
inactive

Ok, now CC(C)(C)c1cc(O)c(C(C)(C)C)cc1O
active

Ok, now Cc1ccccc1Cl
inactive

Ok, now COc1cc(S(=O)(=O)O)c(C)cc1N=Nc1c(O)ccc2cc(S(=O)(=O)O)ccc12
inactive

Ok, now Nc1ccccc1N
inactive

Ok, now O=C(O)CCCCC(=O)O
inactive

Ok, now Cc1ccc2ncccc2c1
inactive

Ok, now Cc1nc(C)nc(N2C[C@@H](C)N(c3ccnc([C@@H](C)O)n3)[C@@H](C)C2)n1
inactive

Ok, now Cc1cccc(C)c1O
inactive
